Listed here are sequences together with their documented apparent KD of K4 kissing-loop reporter.
Test system: K4 kissing-loop RNA reporter;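 also: bound reporter read as fluorescence of individual clusters on recovered sequencing chips by microscopy, with normalized cluster intensities fitted with a binding model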
Assay: apparent KD of K4 kissing-loop reporter; higher = weaker reporter binding
Conditions: Eterna round: R107; input ligand: tryptophan 2.4 mM
Write the value in nM as a bare number.

Recorded apparent KD of K4 kissing-loop reporter, per entry:
INSERT INTO results (residue_string, result_units, observed) VALUES
  ('AGGUUUUACGGAGGAUAUGCACUGAGGAGGAGAAUAUAGUGAUGUUAUAUAAGAGGAAGGAGAAGAGUAGAAGGCCGUGAGGUUU [SSFMNB.M]', 'nM', 98.6),
  ('AGAAGGAGAACUGCAAGAACUCCUUCAGACUAGGAUAUCAGGAAACUGAGAAGGAGUCAACUUGCAGUGAUGUUGCAAGAAUAAU [[F]''''-[K]''-[F]''-[F1]-[F2]-[K1]-[K2]_Design1]', 'nM', 131);

# input for lookup
Please fill in: apparent KD of K4 kissing-loop reporter reported for AGGAGCGUGGGAUGGAAAUCGCACGCUCCUCGAGGACCGGUACGGCCGCCACUCGCUCGCGCCGAGUGAUGUUCGGCCGGCGAAC [#2 Same State - Tryptophan A Attempt #11 (HarryS)] = 482

---

Test system: MS2 coat protein
Experiment: apparent KD of MS2 coat protein; designed switch direction (-1 OFF switch, 1 ON switch): -1; higher = weaker reporter binding
Details: input ligand: microRNA oligo, concentration not stated
In this scheme, each record receives a class according to its apparent KD of MS2 coat protein; the ranges are class 1 (below 20 nM), class 2 (20 nM to below 70 nM), class 3 (70 nM or more)

// query Classify this sequence: GUACUGAAGCUUUGCUUUAGUCGUACAUGAGGAUCACCCAUGUAGGAUAUGGUAGGCAUAGCUUACUAGAAGGAUAGAGUGAUC [Mat - Exclusion NG 3 - Mod of JL - D64] (Eterna round: R96, puzzle: Exclusion NG 3)
// result class 3

// query Note: place this sequence into its band. Item: CAGACCCGCCUUGGUCACAUGAGGAUCACCCAUGUUUAGGUCUAGGAUAUGGCCGUCGAGGACGGCCAGAAGGAGAAUAUCAUG [Eternabot solution 34] (Eterna round: R96, puzzle: Exclusion NG 3)
// result class 2

// query Kindly state the category for this sequence: GUGGCACAUGAGGAUCACCCAUGUCAGGAUAUCGCGUGGUUUUUUUCGGCCGCGCGCGCGAGAAGGGACGUCUU (Eterna round: R96, puzzle: Exclusion 1)
// result class 2

// query // return the class label for CAUGAUUGGCGAGGAUAUUGUUCUACAUGGCGACGAGAAGGCGCCUGUCACAUGAGGAUCACCCAUGUGAGUCUGGUGAAUGAG [Ex NG1 #84] (Eterna round: R96, puzzle: Exclusion NG 1)
// result class 1

// query The entry to classify is GGGCCGGCCGGAGGAUAUGCGGCUUGGUUGGUCGGUGGGCCGGCCGGGACAUGAGGAUCACCCAUGUAGAAGGCUGGUUGGUUC [less GC, MS2 in another position, A 14%] (Eterna round: R96, puzzle: Exclusion NG 2) ; which class holds it?
// result class 2

// query Where would UGUUGUUACGCAGGAUAUGAGGAUCACCCAUAUAAGGAUAUCGAAAGAGAAGGUCUGAGGAUUACCCAGAAGGGCGGGUUAACA [pwkr exNG2 2xF5 2xFMN.29] (Eterna round: R96, puzzle: Exclusion NG 2) land among the classes by reported apparent KD of MS2 coat protein?
// result class 2

// query Band for UACAUGUGAGGAUAUGUACGAAGCCCGGCUGGGCCUCGCAGGCAGAAGGCACAUGAGGAUCACCCAUGUGACCG [Enanvezave] (Eterna round: R96, puzzle: Exclusion 4) ?
// result class 1

// query Textbook exercise: identify the category of the sequence given here, GCACGGAGUGUAGGAUAUUAGUGCGAUUAGCACUGAGAAGGACAUGAGGAUCACCCAUGUUCCUCAAUAAAAUACCUUCCGUGC [Eli exng1 - 040] (Eterna round: R96, puzzle: Exclusion NG 1) , according to its measured value.
// result class 1

// query Form: Item = GUCAGCUCGUGAGGAUAUACAUGCGUGCUUCGGCACGAAUUUAAGAUCACAUGAGGAUCACCCAUGUAGAAGGUACGAGCUGAU [ENG2/3-C2] (Eterna round: R96, puzzle: Exclusion NG 2) ; Class = ?
// result class 3

// query Any idea which band UGCAUGUAAGGAUAUGCAUCCGCCAACGAACCGGCGGCACAGCAGAAGGUACAUGAGGAUCACCCAUGUGUCCC [Isonrian] (Eterna round: R96, puzzle: Exclusion 4) is in?
// result class 2

// query Which bin should I file UUGUUAUGUGUAGGAUAUGCGUGUUAUUAUUAUGCAGAAGGACAUGAGGAUCACCCAUGUGUAUUAUUAUUAUAUAUUAUAUAU [Title] (Eterna round: R96, puzzle: Exclusion NG 1) under?
// result class 1

// query Where would UUUUUAUAACAAGGAUAUACUAAACAUGAGGAUCACCCAUGUAAUAUUAUGAGUGAGAGAGAGAAGUAGAAGGUGUAUUAUUUU [JMF solution 2] (Eterna round: R96, puzzle: Exclusion NG 2) land among the classes by reported apparent KD of MS2 coat protein?
// result class 3

// query Hi, small favor: classify UUUGAAAAUGUAGGAUAUGGAAUAGGUAAGUAGCCAGAAGGACAUGAGGAUCACCCAUGUAAGAACAUAGGGAAAGAUAUGUUU [No clue what I'm doing] (Eterna round: R96, puzzle: Exclusion NG 1) by its apparent KD of MS2 coat protein when you get a moment.
// result class 2

// query // return the class label for UCAUGGAAGCAGGAUAUGCUUGUUUAAUUGUUUGCAGAAGGGCUAACAUGAGGAUCACCCAUGUAAGAGGUCUA [JR_E6_Sub063] (Eterna round: R96, puzzle: Exclusion 6)
// result class 2

// query Please classify: UAGUGUUACACAGGAUAUCGCCUCUUAUUACAUGAGGAUCACCCAUGUUUAGUUAGUUACAUGUACGAGAAGGGUGUUGUAGUU [JR_ExcNG2_Sub039] (Eterna round: R96, puzzle: Exclusion NG 2)
// result class 3

// query Using the reported apparent KD of MS2 coat protein, which band applies to GCUGCACAUGUAGGAUAUCUGCACGAUUAGUGCAGAGAAGGACAUGAGGAUCACCCAUGUAGAUCAGCAGCAAUUAAUUUAAUU [ENG1/6-A1] (Eterna round: R96, puzzle: Exclusion NG 1) ?
// result class 3

// query Hi, small favor: classify GUCAGCUCGUCAGGAUAUACAUGAGGAUCACCCAUGUGAUCAAUAGCAGCUUCGGCUGCAUACAUGUAGAAGGGACGAGCUGAU [ENG2/6-B2] (Eterna round: R96, puzzle: Exclusion NG 2) by its apparent KD of MS2 coat protein when you get a moment.
// result class 1

---

Tested on: MS2 coat protein
Test: apparent KD of MS2 coat protein; designed switch direction (-1 OFF switch, 1 ON switch): -1; higher = weaker reporter binding
Details: input ligand: none
reported.metric: apparent KD of MS2 coat protein (nM)
All answers are understood in nM, so give the number only.

Consider the worked cases shown below.
INSERT INTO assay_data (residue_string, observed) VALUES
  ('AGGUGUAGAGGAUAUCUCUUCUCUCACAUGAGGAUCACCCAUGUCCUGGGUACCUGGGAGAGAGAAGGCUACACCA [Omei Ex5 D12] (Eterna round: R97, puzzle: Exclusion 5)', 2460),
  ('UGAGCAUCAGGAUAUACAAGGCGACCGUGAGGUCGAAGGUUACAUGAGGAUCACCCAUGUAGAAGGGAUGUUCU [jl-ex2-4.11] (Eterna round: R97, puzzle: Exclusion 2)', 25.4),
  ('UGCCGAAGAGGAUAUACAUUGAAUUUGAUUCAUGUAAAACUACAUGAGGAUCACCCAUGUAGAAGGCUUUGGCU [Mat - Exclusion 2 - JL Mod - D61] (Eterna round: R97, puzzle: Exclusion 2)', 15.3),
  ('AGGUGUAGAGGAUAUCUCUUCUCUCACAUGAGGAUCACCCAUGUCCUAAAGACCAAGGAGAGAGAAGGCUACACCA [Omei Ex5 D6] (Eterna round: R97, puzzle: Exclusion 5)', 41.8);

Switching to the query record.
Summary for this sequence, AAUGGUAAAGUCAGGAUAUACGUAAGUCGUUCUAGGUAGAAGGGACAUGAGGAUCACCCAUGUAUGAUAGUAAA [Ex4 #33] (Eterna round: R97, puzzle: Brourd's mod of Exclusion 4) : apparent KD of MS2 coat protein is 44.6

---

System: MS2 coat protein
Assay: apparent KD of MS2 coat protein; higher = weaker reporter binding
Settings: Eterna round: R107; input ligand: none
Decision: apparent KD of MS2 coat protein >= 20 nM yields T, all other cases yield F.

// query Determine whether measured apparent KD of MS2 coat protein meets or exceeds 20 nM for AGUCUUGAACGAAGGAGCGACGUACAUGAGGAUCACCCAUGUGGGAGCGAAAGCUCCUAACGUCAGGUAGGUCGCGUUCGAGACA [Omei Arginine B SS A v1]
// result F

// query Determine whether this sequence has apparent KD of MS2 coat protein no lower than 20 nM: GUGUUAUGCUCGGCCGCCACUCUGACAUGAGGAUCACCCAUGUUGUACAUGAGGAUCACCCAUGUGAGGACCGGGAGAAACACGA [Exclusion Tryptophan B GF9]
// result T

// query Threshold query (apparent KD of MS2 coat protein >= 20 nM) on GUCCACAGCCGAAGGAGCGCUAGAAGAUGACAUGAGGAUCACCCAUGUGUGUGGUGUGGCUAGCAGGUAGGUCGCGGAGUGGAUU [Exclusion - Arginine B (Freestyle 15)]
// result T

// query Does the sequence UUCAGACAUGAGGAUCACCCAUGUACUGAAGGAGCGGAUAAAUAUCCAGGUAGGUCGCAGUAUUGAGGGUCUACUUCCAGUCUUA [Rexeesqu] have recorded apparent KD of MS2 coat protein that is 20 nM or more?
// result F

// query Is reported apparent KD of MS2 coat protein greater than or equal to 20 nM here: GCUACAUGAGGAUCACCCAUGUCAGCUACACGAGGACCGGUACGGCCGCCACUCGGUAGCGCUCAUCCUCGUGUGUAAGUCAAGU [Xedier]
// result T
